Target: Acetylcholinesterase (Homo sapiens)
Sequence (P22303 whole entry): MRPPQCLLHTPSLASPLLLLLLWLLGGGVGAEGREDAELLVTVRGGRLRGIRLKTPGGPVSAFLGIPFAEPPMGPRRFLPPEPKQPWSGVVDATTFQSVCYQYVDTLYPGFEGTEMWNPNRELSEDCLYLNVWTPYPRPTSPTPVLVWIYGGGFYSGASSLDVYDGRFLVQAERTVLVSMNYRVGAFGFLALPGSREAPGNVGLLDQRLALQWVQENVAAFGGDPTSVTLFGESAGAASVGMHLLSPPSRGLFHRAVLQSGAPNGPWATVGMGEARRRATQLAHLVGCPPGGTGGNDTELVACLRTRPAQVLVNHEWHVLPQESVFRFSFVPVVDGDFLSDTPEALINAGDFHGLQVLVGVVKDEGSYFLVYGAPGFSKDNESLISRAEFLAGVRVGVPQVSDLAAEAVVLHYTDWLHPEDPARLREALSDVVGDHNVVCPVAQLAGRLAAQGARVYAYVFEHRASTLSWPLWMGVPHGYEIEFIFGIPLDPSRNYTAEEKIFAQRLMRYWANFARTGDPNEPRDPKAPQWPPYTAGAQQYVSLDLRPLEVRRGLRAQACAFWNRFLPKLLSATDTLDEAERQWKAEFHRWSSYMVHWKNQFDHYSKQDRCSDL
OBSERVED_PROPERTY: pKi
Lab note — pKi values are minus log10 of concentrations in M.

*Q* Given the entry CC1=CC2Cc3nc4cc(Cl)ccc4c(NCCCCCCNC(=O)[C@@H](N)Cc4c[nH]c5ccccc45)c3C(C1)C2 (stereo partly specified) , what pKi was observed with Acetylcholinesterase (Homo sapiens)?
*A* 7.64

* * *

What follows is a record of pIC50 for Acetylcholinesterase (Homo sapiens).
Lab note — pIC50 values are minus log10 of concentrations in M.

Guide cases for pIC50, answers given:
COMPOUND: CC1=CC2Cc3nc4cc(Cl)ccc4c(NCCCCCCCNC(=O)[C@@H](N)Cc4c[nH]c5ccccc45)c3C(C1)C2 (stereo partly drawn)
pIC50: 7.92
//
COMPOUND: CC1=CC2Cc3nc4cc(Cl)ccc4c(NCCCCCCNC(=O)[C@@H](N)Cc4c[nH]c5ccccc45)c3C(C1)C2 (stereo partly drawn)
pIC50: 7.93

*Q* Given the entry CC1=CC2Cc3nc4cc(Cl)ccc4c(NCCCCCNC(=O)[C@@H](N)Cc4c[nH]c5ccccc45)c3C(C1)C2 (stereo partly drawn) , what pIC50 was observed with Acetylcholinesterase (Homo sapiens)?
*A* 7.64

* * *

What follows is a record of IC50 for Nitric oxide synthase 1 (Homo sapiens, UniProt P29475).
Supply the numeric figure in µM, leaving out any unit text.

*Q* Given the entry CC1=CC2Cc3nc4cc(Cl)ccc4c(NCCCCCNC(=O)[C@@H](N)Cc4c[nH]c5ccccc45)c3C(C1)C2 (stereo not given in full) , what IC50 was observed with Nitric oxide synthase 1 (Homo sapiens, UniProt P29475)?
*A* 24

* * *

What follows is a record of IC50 for Cholinesterase (Homo sapiens).
Supply the numeric figure in µM, leaving out any unit text.

*Q* Given the entry CC1=CC2Cc3nc4cc(Cl)ccc4c(NCCCCCCCNC(=O)[C@@H](N)Cc4c[nH]c5ccccc45)c3C(C1)C2 (stereo partly drawn) , what IC50 was observed with Cholinesterase (Homo sapiens)?
*A* 0.0845

*Q* Given the entry CC1=CC2Cc3nc4cc(Cl)ccc4c(NCCCCCNC(=O)[C@@H](N)Cc4c[nH]c5ccccc45)c3C(C1)C2 (stereo partly drawn) , what IC50 was observed with Cholinesterase (Homo sapiens)?
*A* 0.0683

*Q* Given the entry CC1=CC2Cc3nc4cc(Cl)ccc4c(NCCCCCCNC(=O)[C@@H](N)Cc4c[nH]c5ccccc45)c3C(C1)C2 (stereo partly drawn) , what IC50 was observed with Cholinesterase (Homo sapiens)?
*A* 0.0457

* * *

Tested on: HepG2
Test: cells
Conditions: Homo sapiens, HepG2, 24 h
Description: Cytotoxicity against human HepG2 cells assessed as reduction in cell viability measured after 24 hrs by MTT assay
The entries below are paired with their reported pIC50.
Lab note — pIC50 values are minus log10 of concentrations in M.

Guide cases for pIC50, answers given:
MOLECULE: CC1=CC2Cc3nc4cc(Cl)ccc4c(N)c3C(C1)C2 (racemic)
OBSERVED_PROPERTY: pIC50
ASSAY_VALUE: 4.80
--
MOLECULE: CC1=CC2Cc3nc4cc(Cl)ccc4c(NCCCCCCNC(=O)[C@@H](N)Cc4c[nH]c5ccccc45)c3C(C1)C2 (stereo not given in full)
OBSERVED_PROPERTY: pIC50
ASSAY_VALUE: 5.25
--
MOLECULE: CC1=CC2Cc3nc4cc(Cl)ccc4c(NCCCCCCCNC(=O)[C@@H](N)Cc4c[nH]c5ccccc45)c3C(C1)C2 (stereo not given in full)
OBSERVED_PROPERTY: pIC50
ASSAY_VALUE: 4.91
--
MOLECULE: COc1ccc2nc3c(c(N)c2c1)C1CC(C)=CC(C3)C1 (racemic)
OBSERVED_PROPERTY: pIC50
ASSAY_VALUE: 4.83

*Q* I would be grateful if you could share the reported pIC50 for CC1=CC2Cc3nc4cc(Cl)ccc4c(NCCCCCNC(=O)[C@@H](N)Cc4c[nH]c5ccccc45)c3C(C1)C2 (stereo not given in full) .
*A* 5.32
